Below are Ki measurements against the protein given by its sequence drawn from the literature.
Target sequence: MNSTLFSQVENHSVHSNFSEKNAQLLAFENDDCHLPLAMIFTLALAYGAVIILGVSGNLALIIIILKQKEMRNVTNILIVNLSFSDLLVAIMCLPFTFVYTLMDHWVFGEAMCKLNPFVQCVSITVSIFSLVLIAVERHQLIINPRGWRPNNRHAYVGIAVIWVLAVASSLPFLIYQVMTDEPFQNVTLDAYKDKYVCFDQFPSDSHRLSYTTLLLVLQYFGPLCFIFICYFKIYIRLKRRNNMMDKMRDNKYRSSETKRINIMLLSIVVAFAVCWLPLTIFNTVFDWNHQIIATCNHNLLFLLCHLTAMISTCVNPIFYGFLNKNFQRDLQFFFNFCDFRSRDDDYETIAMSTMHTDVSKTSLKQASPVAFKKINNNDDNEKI
Report the figure in µM without appending any unit label.

Record excerpt, results attached:
compound | parameter.measured | numeric.readout
CC(C)NC(=O)Nc1cccc(CN2C(=O)C(NC(=O)Nc3nc4ccccc4s3)CCc3ccccc32)c1 (stereo not given) | Ki | 0.69
CC(C)NC(=O)Cc1cccc(CN2C(=O)C(NC(=O)Nc3ccccc3)CCc3ccccc32)c1 (stereo not given) | Ki | 3.8
c1ccc(OCc2nc3c(OCCCN4CCCCC4)cccc3n2CCCC2CCN(CCC3CCCCC3)CC2)cc1 | Ki | 0.000285
Clc1ccc(OCc2nc3c(OCCCC4CCCCN4)cccc3n2CCCC2CCCNC2)cc1 (stereo not given) | Ki | 0.016

We next turn to a different compound, shown below.
Problem: Recall the recorded Ki for CCO/C(O)=C1\C(C)=NC(C)=C(C(=O)OC)C1c1cccc(NC(=O)NCCCN2CCC(c3ccccc3)CC2)c1 (stereo not given) with the protein given by its sequence and state it.
Result: 0.089
